tested on: HT-29; test: Growth inhibition of human HT-29 cells at 10 uM relative to control; format: functional; settings: values are per cent of control

Chemical structure	Result units	growth, % of control at 10 µM
O=C(/C=C/c1cn(CC(=O)c2ccccc2)nn1)NO	%	60
O=C(/C=C/c1cn(C/C=C/c2ccccc2)nn1)NO	%	12
O=C(Cn1cc(C(=O)NO)nn1)c1ccccc1	%	115
O=C(/C=C/c1cn(CCc2ccccc2)nn1)NO	%	56.9
O=C(NO)c1cn(C/C=C/c2ccccc2)nn1	%	104
O=C(/C=C/c1cn(CC(=O)Nc2ccccc2)nn1)NO	%	51.9

* * *

test system: OVCAR-4; experiment: Growth inhibition of human OVCAR4 cells at 10 uM relative to control; format: functional; settings: values are per cent of control

Chemical structure	growth, % of control at 10 µM (%)
O=C(/C=C/c1cn(CC(=O)c2ccccc2)nn1)NO	77.8
O=C(Cn1cc(C(=O)NO)nn1)c1ccccc1	112
O=C(/C=C/c1cn(CCc2ccccc2)nn1)NO	77.5
O=C(/C=C/c1cn(C/C=C/c2ccccc2)nn1)NO	55.7
O=C(/C=C/c1cn(CC(=O)Nc2ccccc2)nn1)NO	83.7
O=C(NO)c1cn(C/C=C/c2ccccc2)nn1	94.3

meta.source: ChEMBL document CHEMBL1140227
